ASSAY_SYSTEM: HDAC2 (Homo sapiens, UniProt Q92769)
Sequence (Q92769 whole entry): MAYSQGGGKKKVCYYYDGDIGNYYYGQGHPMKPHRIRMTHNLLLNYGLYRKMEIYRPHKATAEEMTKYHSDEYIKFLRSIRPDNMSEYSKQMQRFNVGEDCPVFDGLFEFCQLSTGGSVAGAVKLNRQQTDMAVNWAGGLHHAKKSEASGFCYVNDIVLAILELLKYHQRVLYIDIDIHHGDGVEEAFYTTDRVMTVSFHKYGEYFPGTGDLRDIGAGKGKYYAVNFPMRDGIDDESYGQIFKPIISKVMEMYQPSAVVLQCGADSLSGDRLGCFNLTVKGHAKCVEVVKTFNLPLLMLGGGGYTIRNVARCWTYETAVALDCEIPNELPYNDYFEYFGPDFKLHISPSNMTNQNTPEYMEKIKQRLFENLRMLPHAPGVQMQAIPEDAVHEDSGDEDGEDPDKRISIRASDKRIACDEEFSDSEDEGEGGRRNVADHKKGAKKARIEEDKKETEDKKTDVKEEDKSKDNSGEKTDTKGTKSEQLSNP
pIC50: −log10 of the molar value.
MEASURED_QUANTITY: pIC50

MOLECULE: Cc1ccc(NC(=O)CCCCCC(=O)NO)cc1
MEASURED_QUANTITY: pIC50
RESULT_VALUE: 5.53

###

ASSAY_SYSTEM: HDAC1 (Homo sapiens, UniProt Q13547)
Sequence (Q13547 whole entry): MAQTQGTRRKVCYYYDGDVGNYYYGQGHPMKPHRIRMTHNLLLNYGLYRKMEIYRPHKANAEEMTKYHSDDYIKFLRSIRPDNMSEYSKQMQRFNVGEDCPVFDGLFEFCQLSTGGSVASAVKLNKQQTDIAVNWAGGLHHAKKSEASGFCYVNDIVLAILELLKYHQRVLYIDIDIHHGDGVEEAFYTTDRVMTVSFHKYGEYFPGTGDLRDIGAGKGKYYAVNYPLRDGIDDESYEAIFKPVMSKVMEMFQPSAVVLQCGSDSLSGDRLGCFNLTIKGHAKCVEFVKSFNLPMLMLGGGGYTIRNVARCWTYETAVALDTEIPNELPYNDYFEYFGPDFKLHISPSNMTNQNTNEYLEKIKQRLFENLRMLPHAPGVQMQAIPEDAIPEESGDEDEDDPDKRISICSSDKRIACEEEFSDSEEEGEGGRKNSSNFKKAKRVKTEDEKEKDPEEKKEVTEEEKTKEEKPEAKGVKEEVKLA

MOLECULE: Cc1ccc(NC(=O)CCCCCC(=O)N2CCN(c3ccccc3)CC2)cc1
IC50 (µM): 4.2

Where do these numbers come from? They come from patent US20100285476A1.
